Assay: in vivo
Conditions: male, SD, rat, iv, 1.4 mg/kg, Liver-plasma concentration ratio of Endothal
measurement-kind: Kp at 1 hr
// no unit string in output, number only

Could you tell me which Kp at 1 hr is on file for O=C(O)C1C2CCC(O2)C1C(=O)O (stereo not shown) [Endothal] ?
27.9

---

Assay: Pharmacokinetic study of 151 (iv, oral) in SD rats: 151 and 100 in plasma
Format: in vivo
Conditions: male, Sprague-Dawley, rat, in vivo; plasma, 151 PO 10 mg/kg, SD rats, mean
measurement-kind: Tmax (min)
Quick reminder: number only, in min, skip the unit.

Could you tell me which Tmax is on file for COC(=O)C1C2CCC(O2)C1C(=O)N1CCN(C)CC1 (stereo not shown) ?
30
